B1: ANKRD17 (parent)
chain: EVLRRLTSSVSCALDEAAAALTRM

Variants of: B1
test-method-notes: protein stability index of a GFP-peptide fusion (GPS, HEK-293T) (PSI 1-6); higher = more stable;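 further: lentivirally expressed fusions sorted by FACS into six bins by GFP to DsRed ratio, PSI derived from sequencing read proportions per bin multiplied by bin number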
experimental-parameters: c terminus: a fixed tail appended
Each record here notes measured protein stability index.
Give the figure by itself; no unit, no explanation.

[
  {
    "mutation-name": "L14W",
    "protein stability index": 1.81
  },
  {
    "mutation-name": "S9R",
    "protein stability index": 2.69
  },
  {
    "mutation-name": "L3Y",
    "protein stability index": 2.44
  }
]

// query Look up protein stability index: `M24N`
// result 1.65

// query Look up protein stability index: `A13M`
// result 1.6

// query Look up protein stability index: `D15C`
// result 1.99

// query Look up protein stability index: `V2D`
// result 2.77

// query Look up protein stability index: `R23P`
// result 2.15

// query Look up protein stability index: `L6H`
// result 1.66

// query Look up protein stability index: `S9G`
// result 1.64

// query Look up protein stability index: `R5S`
// result 2.18

// query Look up protein stability index: `T7A`
// result 2.96

// query Look up protein stability index: `L14D`
// result 1.94

// query Look up protein stability index: `T7S`
// result 2.09

// query Look up protein stability index: `A17M`
// result 1.85

// query Look up protein stability index: `L3R`
// result 2.17

// query Look up protein stability index: `A20N`
// result 3.01

These entries and their values trace back to the supplement of paper PMC10567573.
